Target desc: full-length SARM1 (FL-SARM1) (Homo sapiens, UniProt Q6SZW1)
Sequence (Q6SZW1 28-724): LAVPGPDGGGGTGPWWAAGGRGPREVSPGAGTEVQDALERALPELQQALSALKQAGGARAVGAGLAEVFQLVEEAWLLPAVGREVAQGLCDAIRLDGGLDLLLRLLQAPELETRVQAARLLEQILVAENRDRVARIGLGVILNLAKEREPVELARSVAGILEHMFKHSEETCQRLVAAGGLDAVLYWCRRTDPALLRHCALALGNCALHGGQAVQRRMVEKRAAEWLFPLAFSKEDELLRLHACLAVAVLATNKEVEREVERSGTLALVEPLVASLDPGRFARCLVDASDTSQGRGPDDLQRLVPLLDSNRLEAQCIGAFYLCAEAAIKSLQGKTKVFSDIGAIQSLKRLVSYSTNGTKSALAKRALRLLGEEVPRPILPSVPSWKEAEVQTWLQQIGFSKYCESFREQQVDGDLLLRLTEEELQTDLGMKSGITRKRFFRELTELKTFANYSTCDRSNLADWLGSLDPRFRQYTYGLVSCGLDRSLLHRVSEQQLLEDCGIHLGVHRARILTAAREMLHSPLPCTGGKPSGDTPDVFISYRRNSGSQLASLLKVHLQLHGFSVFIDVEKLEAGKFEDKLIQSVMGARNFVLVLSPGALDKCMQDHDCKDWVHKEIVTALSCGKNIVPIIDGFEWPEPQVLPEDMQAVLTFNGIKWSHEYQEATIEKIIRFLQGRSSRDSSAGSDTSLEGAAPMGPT
Measurement description: FL-SARM1 cellular lysate assay (NAD/NADH-Glo detection of remaining NAD+, NMN-activated)
Protocol conditions: Activity (μM) (IC50), 11 point curve
Readout name: log10 of IC50 (log10 of the value in µM)
The common logarithm of IC50 in µM is what is listed.

Example results:
C[C@H]1CC1c1ccc(NC(=O)[C@@H]2CC2(F)F)cc1-c1ccccn1 (some centres unmarked) [Example 127]
0.75
COc1cncc(-c2cc(NC(=O)N3C4C[C@@H](C)C[C@H]3C4)ccc2C)n1 [Example 218]
-1.52
Cc1ccc(NC(=O)N2CCCC2c2ncccn2)cc1-c1ccccn1 (racemic) [Example 91]
1.20
O=C(Nc1ccc(F)c(-c2ccc(F)cn2)c1)N1C2CCCC1C2 [Example 35]
0.54

So what's the measured log10 of IC50 for this one? O=C(Nc1ccc(C2CC2)c(-c2ccccn2)c1)N1C2CCCC1C2 [Example 34]
0.04

* * *

Target desc: full-length SARM1 (FL-SARM1) (Homo sapiens, UniProt Q6SZW1)
Measurement description: FL-SARM1 cellular lysate assay (NAD/NADH-Glo detection of remaining NAD+, NMN-activated)
Protocol conditions: Activity (IC50 class), 11 point curve
Readout name: IC50

The examples below pair each entry with its known result.
Cc1c(C#N)cc(NC(=O)N2C3CCCC2C3)cc1-c1ccccn1
> 10 µM
Cc1ccc(NC(=O)C2CCC2C)cc1-c1ccccn1 (stereo not drawn)
1 to 10 µM
Cc1ccc(NC(=O)[C@H]2[C@H](C)OCCN2c2ccccn2)cc1-c1ncc(F)cn1
1 to 10 µM
Cc1ccc(NC(=O)N2CCCC2c2ncccn2)cc1-c1ccccn1 (racemic)
> 10 µM
CC[C@H]1C[C@@H]1C(=O)Nc1ccc(C)c(-c2ccccn2)c1 (racemic) [Example 108]
1 to 10 µM

Identify the measured IC50 of `CO[C@@H]1CCCCN(C(=O)Nc2ccc(C(F)(F)F)c(-c3ncc(F)cn3)c2)C1` for full-length SARM1 (FL-SARM1) (Homo sapiens, UniProt Q6SZW1).
> 10 µM

Item: Cc1ccc(NC(=O)[C@H]2C[C@@H]2C2CC2)cc1-c1cccnn1 (racemic) Test system: full-length SARM1 (FL-SARM1) (Homo sapiens, UniProt Q6SZW1) Read-out: IC50 Value: ?
> 10 µM

Request body: readout IC50, system full-length SARM1 (FL-SARM1) (Homo sapiens, UniProt Q6SZW1), query `O=C(Nc1ccc(C(F)F)c(-c2ccccn2)c1)[C@@H]1CC1(F)F` . Return the value.
1 to 10 µM

Checklist item: IC50 tested on full-length SARM1 (FL-SARM1) (Homo sapiens, UniProt Q6SZW1), entry Cc1ccc(NC(=O)N2CCCC2C2CC2)cc1-c1ccccn1 (racemic) , value?
1 to 10 µM

Recorded IC50 for Cc1cc(F)c(NC(=O)N2CCOc3cccnc3C2C)cc1-c1cccnn1 (stereo not drawn) with full-length SARM1 (FL-SARM1) (Homo sapiens, UniProt Q6SZW1), please?
1 to 10 µM

Give IC50 (full-length SARM1 (FL-SARM1) (Homo sapiens, UniProt Q6SZW1)) of the following molecule: `Cc1ccc(NC(=O)[C@H]2C[C@H]3C[C@H]3N2c2cncnn2)cc1-c1ncc(F)cn1`
1 to 10 µM

Lab note: need IC50 with full-length SARM1 (FL-SARM1) (Homo sapiens, UniProt Q6SZW1) for entry `Cc1ccc(NC(=O)[C@@H]2CC2(F)F)cc1-c1ncccc1C` , please look it up.
1 to 10 µM

# value lookup — system full-length SARM1 (FL-SARM1) (Homo sapiens, UniProt Q6SZW1), readout IC50, item `Cc1ccc(NC(=O)[C@H]2C[C@H]3C[C@H]3N2c2cnccn2)cc1-c1ncc(F)cn1`
1 to 10 µM

Recorded IC50 for `Cc1ccc(NC(=O)CC2CCC2)cc1-c1ncccc1F` with full-length SARM1 (FL-SARM1) (Homo sapiens, UniProt Q6SZW1), please?
1 to 10 µM

Request: IC50, test system full-length SARM1 (FL-SARM1) (Homo sapiens, UniProt Q6SZW1), entry `Cc1ccc(NC(=O)C2(C3CCC3)CC2)cc1-c1cccnn1`
> 10 µM

Short answer please: IC50, full-length SARM1 (FL-SARM1) (Homo sapiens, UniProt Q6SZW1), entry Cc1ccc(NC(=O)N2C3CCC2c2cnccc23)cc1-c1ccccn1 (stereo not drawn)
1 to 10 µM

Which measured IC50 belongs to `Cc1ccc(NC(=O)C2CC3(CC3)C2)cc1-c1ccccn1` , tested on full-length SARM1 (FL-SARM1) (Homo sapiens, UniProt Q6SZW1)?
1 to 10 µM

Short answer please: IC50, full-length SARM1 (FL-SARM1) (Homo sapiens, UniProt Q6SZW1), entry `Cc1ccc(NC(=O)[C@H]2C[C@H]3C[C@H]3N2c2nccnn2)cc1-c1ncc(F)cn1`
1 to 10 µM

Origin of the recorded values: patent US20250171462A1
